Values of MIC reported for Salmonella enterica subsp. enterica serovar Pullorum ATCC 7913 appear below.
Give the number; µM is assumed, so skip it.

CC[C@H](C)[C@H](NC(=O)[C@H](CC(C)C)NC(=O)[C@@H](NC(=O)[C@@H](N)CC(=O)O)[C@@H](C)CC)C(=O)N[C@H](C(=O)N[C@H](C(=O)NCC(=O)NCC(=O)N[C@@H](CCCN=C(N)N)C(=O)N[C@@H](CCCN=C(N)N)C(=O)N[C@@H](CCCN=C(N)N)C(=O)N[C@@H](CCCN=C(N)N)C(=O)N[C@@H](CCCN=C(N)N)C(=O)N[C@@H](CCCN=C(N)N)C(=O)N[C@@H](CCCN=C(N)N)C(=O)N[C@@H](CCCN=C(N)N)C(N)=O)C(C)C)[C@@H](C)CC [DILIIVGGRRRRRRRR] ... 8

Now take the following molecule into account.
Exercise: Recorded MIC for CC[C@H](C)[C@H](NC(=O)[C@H](CCCN=C(N)N)NC(=O)[C@H](CCCN=C(N)N)NC(=O)[C@@H](NC(=O)[C@@H](NC(=O)[C@@H](N)CCCN=C(N)N)[C@@H](C)CC)[C@@H](C)CC)C(=O)N[C@@H](CCCN=C(N)N)C(=O)N[C@@H](CCCN=C(N)N)C(=O)N[C@H](C(=O)N[C@H](C(=O)N[C@@H](CCCN=C(N)N)C(N)=O)[C@@H](C)CC)[C@@H](C)CC [RIIRRIRRIIR] , please?
Solution: 16

###

# reported MIC; entries follow
- System: Escherichia coli UB1005
- testDescription: ≥ marks a high value that may be exact or a test limit, other limits are often not marked, values filed in µg/mL are converted to µM
Give the number; µM is assumed, so skip it.

CC(C)C[C@H](NC(=O)[C@H](Cc1c[nH]c2ccccc12)NC(=O)[C@H](CCCCN)NC(=O)[C@H](CCCN=C(N)N)NC(=O)[C@@H](NC(=O)[C@H](Cc1c[nH]c2ccccc12)NC(=O)[C@H](CCCCN)NC(=O)[C@H](CCCN=C(N)N)NC(=O)[C@H](CC(C)C)NC(=O)[C@H](Cc1c[nH]c2ccccc12)NC(=O)[C@@H](N)CCCN=C(N)N)[C@@H](C)O)C(=O)N[C@@H](CCCCN)C(N)=O ... 4

Now take the following compound into account.
Exercise: Recorded MIC for CC(C)C[C@H](NC(=O)[C@H](C)NC(=O)[C@H](CCCCN)NC(=O)[C@H](CCCCN)NC(=O)[C@H](CC(C)C)NC(=O)[C@H](C)NC(=O)[C@H](CCCCN)NC(=O)[C@H](CCCCN)NC(=O)[C@H](CC(C)C)NC(=O)[C@H](CCCCN)NC(=O)[C@H](CCCCN)NC(=O)[C@H](CC(C)C)NC(=O)[C@H](C)NC(=O)[C@H](CCCCN)NC(=O)[C@H](CC(C)C)NC(=O)[C@H](C)NC(=O)[C@@H](N)Cc1ccccc1)C(N)=O , please?
Solution: 2.09

###

- Test system: Bacillus subtilis ATCC 6633
experimentalReadout: MIC (µM)
Give the number; µM is assumed, so skip it.

Previously resolved entries follow.
CC[C@H](C)[C@H](N)C(=O)N[C@@H](CC(N)=O)C(=O)N[C@@H](Cc1c[nH]c2ccccc12)C(=O)N[C@@H](CCCCN)C(=O)N[C@@H](CCCCN)C(=O)N[C@H](C(=O)N[C@@H](C)C(=O)N[C@@H](CCC(=O)O)C(=O)N[C@H](C(=O)NCC(=O)N[C@@H](CCCCN)C(=O)N[C@@H](CCC(N)=O)C(=O)N[C@H](C(=O)N[C@@H](CC(C)C)C(=O)N[C@@H](CO)C(=O)N[C@@H](C)C(=O)N[C@@H](CC(C)C)C(N)=O)C(C)C)[C@@H](C)CC)[C@@H](C)CC [INWKKIAEIGKQVLSAL] ... 1.05
CC[C@H](C)[C@H](NC(=O)[C@@H]1CCCN1C(=O)[C@H](Cc1ccccc1)NC(=O)[C@@H](N)Cc1ccccc1)C(=O)N[C@H](C(=O)NCC(=O)N[C@@H](CCCCN)C(=O)N[C@@H](CCCN=C(N)N)C(=O)N[C@@H](CC(C)C)C(=O)N[C@@H](Cc1ccc(O)cc1)C(=O)NCC(=O)N[C@@H](CC(C)C)C(=O)N[C@@H](CC(C)C)C(N)=O)C(C)C [FFPIVGKRLYGLL] ... 6.16

Now take the following compound into account.
Exercise: Lab note: need MIC with Bacillus subtilis ATCC 6633 for entry CC(C)C[C@H](NC(=O)[C@H](Cc1c[nH]c2ccccc12)NC(=O)[C@H](CCCCN)NC(=O)[C@H](CC(C)C)NC(=O)[C@@H](N)Cc1ccccc1)C(=O)N[C@@H](Cc1ccccc1)C(=O)N[C@@H](CCCCN)C(=O)N[C@@H](Cc1c[nH]c2ccccc12)C(=O)N[C@@H](C)C(=O)N[C@@H](CCCCN)C(=O)N[C@@H](CCCCN)C(N)=O [FLKWLFKWAKK] , please look it up.
Solution: 2.07
